procedure_text: in vitro
recorded_conditions: mouse, plasma
quantity_measured: half-life

Recorded half-life (compound O=C1COc2ncc(CN[C@H]3CO[C@H](CC4Cn5c(=O)ccc6ccc(F)c4c65)OC3)nc2N1 (some centres unmarked) ): > 4 h

Recorded half-life (compound COc1ccc2ncc(F)c(C[C@H](O)[C@H]3OC[C@H](NCc4cnc5c(n4)NC(=O)CO5)CO3)c2n1 ): > 2 h

###

procedure_text: Human microsomal stability
Format: in vitro ADME
recorded_conditions: microsomes, read-out: Human microsom. t1/2
quantity_measured: half-life

Recorded half-life (compound O=C1COc2ncc(CN[C@H]3CO[C@H](CC4Cn5c(=O)ccc6ccc(F)c4c65)OC3)nc2N1 (stereo partly drawn) [Compound 319] ): > 2 h

Recorded half-life (compound COc1ccc2ncc(F)c(C[C@H](O)[C@H]3OC[C@H](NCc4cnc5c(n4)NC(=O)CO5)CO3)c2n1 [Compound 284] ): > 2 h

Recorded half-life (compound COc1ccc2ncc(F)c(C[C@H](O)[C@H]3OC[C@H](NCc4cc5c(nn4)OCCS5)CO3)c2n1 [Compound 147, reference compound] ): 1.57 h

###

Assignment: determine reported Vd for the given compounds.
procedure_text: in vivo
recorded_conditions: mouse, Mouse Vdss (L)
The reply should contain only the number, in L.

Recorded Vd (compound COc1ccc2ncc(F)c(C[C@H](O)[C@H]3OC[C@H](NCc4cnc5c(n4)NC(=O)CO5)CO3)c2n1 [Compound 284] ): 0.36

Recorded Vd (compound COc1ccc2ncc(F)c(C[C@H](O)[C@H]3OC[C@H](NCc4cc5c(nn4)OCCS5)CO3)c2n1 [Compound 147, reference compound] ): 1

###

procedure_text: in vitro
recorded_conditions: rat, plasma
Assignment: determine reported half-life for the given molecules.

Recorded half-life (molecule COc1ccc2ncc(F)c(C[C@H](O)[C@H]3OC[C@H](NCc4cnc5c(n4)NC(=O)CO5)CO3)c2n1 ): > 2 h

Recorded half-life (molecule O=C1COc2ncc(CN[C@H]3CO[C@H](CC4Cn5c(=O)ccc6ccc(F)c4c65)OC3)nc2N1 (some centres unmarked) ): > 4 h

###

tested_on: hERG (Homo sapiens, UniProt Q12809)
Sequence (Q12809 whole entry): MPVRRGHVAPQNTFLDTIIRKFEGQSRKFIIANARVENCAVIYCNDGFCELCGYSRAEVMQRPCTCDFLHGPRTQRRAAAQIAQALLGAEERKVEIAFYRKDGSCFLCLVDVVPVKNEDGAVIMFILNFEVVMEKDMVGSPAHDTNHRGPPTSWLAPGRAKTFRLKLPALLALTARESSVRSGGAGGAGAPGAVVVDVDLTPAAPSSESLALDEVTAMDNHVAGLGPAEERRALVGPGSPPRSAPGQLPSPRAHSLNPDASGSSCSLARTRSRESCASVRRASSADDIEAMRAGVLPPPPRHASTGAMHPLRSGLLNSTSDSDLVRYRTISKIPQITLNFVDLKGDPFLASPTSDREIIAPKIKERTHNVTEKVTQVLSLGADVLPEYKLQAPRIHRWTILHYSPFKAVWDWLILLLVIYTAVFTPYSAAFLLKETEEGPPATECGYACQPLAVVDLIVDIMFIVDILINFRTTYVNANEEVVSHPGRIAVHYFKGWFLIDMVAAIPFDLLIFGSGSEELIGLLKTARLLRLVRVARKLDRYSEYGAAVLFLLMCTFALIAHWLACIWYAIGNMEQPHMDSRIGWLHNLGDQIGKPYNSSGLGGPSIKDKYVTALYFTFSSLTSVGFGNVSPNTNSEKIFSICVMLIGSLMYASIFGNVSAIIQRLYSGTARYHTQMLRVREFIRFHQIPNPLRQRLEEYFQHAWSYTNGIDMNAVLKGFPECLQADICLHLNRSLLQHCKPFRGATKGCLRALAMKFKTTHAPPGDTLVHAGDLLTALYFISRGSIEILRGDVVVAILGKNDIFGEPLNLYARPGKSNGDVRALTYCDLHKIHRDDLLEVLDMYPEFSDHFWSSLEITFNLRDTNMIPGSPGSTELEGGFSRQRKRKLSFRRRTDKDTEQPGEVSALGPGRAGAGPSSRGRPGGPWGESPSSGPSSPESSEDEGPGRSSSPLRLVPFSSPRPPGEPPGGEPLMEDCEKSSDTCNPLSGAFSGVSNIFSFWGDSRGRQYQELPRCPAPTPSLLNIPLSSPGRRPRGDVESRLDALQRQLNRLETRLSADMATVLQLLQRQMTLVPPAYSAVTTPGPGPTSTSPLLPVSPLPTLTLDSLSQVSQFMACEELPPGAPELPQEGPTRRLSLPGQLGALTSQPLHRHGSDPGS
procedure_text: hERG inhibition
Assignment: determine reported IC50 for the given compounds.
The reply should contain only the number, in µM.

Recorded IC50 (compound COc1ccc2ncc(F)c(C[C@H](O)[C@H]3OC[C@H](NCc4cnc5c(n4)NC(=O)CO5)CO3)c2n1 ): 104

Recorded IC50 (compound COc1ccc2ncc(F)c(C[C@H](O)[C@H]3OC[C@H](NCc4cc5c(nn4)OCCS5)CO3)c2n1 [Compound 147, reference compound] ): 103

###

procedure_text: Monkey microsomal stability
Assay type: in vitro ADME
recorded_conditions: microsomes, read-out: Monkey microsom. t1/2
quantity_measured: half-life

Recorded half-life (compound COc1ccc2ncc(F)c(C[C@H](O)[C@H]3OC[C@H](NCc4cnc5c(n4)NC(=O)CO5)CO3)c2n1 [Compound 284] ): > 2 h

Recorded half-life (compound O=C1COc2ncc(CN[C@H]3CO[C@H](CC4Cn5c(=O)ccc6ccc(F)c4c65)OC3)nc2N1 (some centres unmarked) [Compound 319] ): > 2 h

###

Tested on: Enterococcus spp.
Assignment: determine reported MIC90 for the given molecules.
The reply should contain only the number, in µg/mL.

Recorded MIC90 (molecule O=c1ccc2ncc(=O)n3c2n1C[C@H]3CN1CCC(NCc2cc3c(cn2)OCCC3)CC1 [gepotidacin, reference compound] ): 4

Recorded MIC90 (molecule COc1ccc2ncc(F)c(C[C@H](O)[C@H]3OC[C@H](NCc4cnc5c(n4)NC(=O)CO5)CO3)c2n1 [Compound 284] ): 2

Recorded MIC90 (molecule O=C1COc2ncc(CN[C@H]3CO[C@H](CC4Cn5c(=O)ccc6ccc(F)c4c65)OC3)nc2N1 (stereo partly shown) [Compound 319] ): 8

Recorded MIC90 (molecule COc1ccc2ncc(F)c(C[C@H](O)[C@H]3OC[C@H](NCc4cc5c(nn4)OCCS5)CO3)c2n1 [Compound 147, reference compound] ): 1

###

procedure_text: Mouse microsomal stability
Type: in vitro ADME
recorded_conditions: microsomes, read-out: Mouse microsom. t1/2
Assignment: determine reported half-life for the given compounds.

Recorded half-life (compound COc1ccc2ncc(F)c(C[C@H](O)[C@H]3OC[C@H](NCc4cc5c(nn4)OCCS5)CO3)c2n1 [Compound 147, reference compound] ): 0.3 to 0.433 h

Recorded half-life (compound O=C1COc2ncc(CN[C@H]3CO[C@H](CC4Cn5c(=O)ccc6ccc(F)c4c65)OC3)nc2N1 (stereo partly drawn) [Compound 319] ): 5.78 h

Recorded half-life (compound COc1ccc2ncc(F)c(C[C@H](O)[C@H]3OC[C@H](NCc4cnc5c(n4)NC(=O)CO5)CO3)c2n1 [Compound 284] ): > 2 h

###

procedure_text: in vitro
recorded_conditions: human, plasma
quantity_measured: half-life (h)
The reply should contain only the number, in h.

Recorded half-life (compound O=C1COc2ncc(CN[C@H]3CO[C@H](CC4Cn5c(=O)ccc6ccc(F)c4c65)OC3)nc2N1 (some centres unmarked) ): 2.18

###

MIC50 values recorded for Streptococcus pneumoniae
The reply should contain only the number, in µg/mL.

Recorded MIC50 (compound COc1ccc2ncc(F)c(C[C@H](O)[C@H]3OC[C@H](NCc4cc5c(nn4)OCCS5)CO3)c2n1 [Compound 147, reference compound] ): 0.5

Recorded MIC50 (compound O=C1COc2ncc(CN[C@H]3CO[C@H](CC4Cn5c(=O)ccc6ccc(F)c4c65)OC3)nc2N1 (stereo partly shown) [Compound 319] ): 1

Recorded MIC50 (compound COc1ccc2ncc(F)c(C[C@H](O)[C@H]3OC[C@H](NCc4cnc5c(n4)NC(=O)CO5)CO3)c2n1 [Compound 284] ): 0.5

Recorded MIC50 (compound O=c1ccc2ncc(=O)n3c2n1C[C@H]3CN1CCC(NCc2cc3c(cn2)OCCC3)CC1 [gepotidacin, reference compound] ): 0.12

###

procedure_text: Dog microsomal stability
Format: in vitro ADME
recorded_conditions: microsomes, read-out: Dog microsom. t1/2
Assignment: determine reported half-life for the given molecules.

Recorded half-life (molecule COc1ccc2ncc(F)c(C[C@H](O)[C@H]3OC[C@H](NCc4cnc5c(n4)NC(=O)CO5)CO3)c2n1 ): > 2 h

Recorded half-life (molecule O=C1COc2ncc(CN[C@H]3CO[C@H](CC4Cn5c(=O)ccc6ccc(F)c4c65)OC3)nc2N1 (some centres unmarked) ): > 2 h

###

Assignment: determine reported Papp A→B for the given molecules.
procedure_text: Permeability: MDCK II A->B
Format: in vitro ADME
recorded_conditions: dog
The reply should contain only the number, in ×10⁻⁶ cm/s.

Recorded Papp A→B (molecule COc1ccc2ncc(F)c(C[C@H](O)[C@H]3OC[C@H](NCc4cnc5c(n4)NC(=O)CO5)CO3)c2n1 ): 0.74

Recorded Papp A→B (molecule O=C1COc2ncc(CN[C@H]3CO[C@H](CC4Cn5c(=O)ccc6ccc(F)c4c65)OC3)nc2N1 (some centres unmarked) ): 1.96

###

procedure_text: physchem
recorded_conditions: pH 7.4, aqueous buffer, kinetic from dmso stock, Kinetic solubility at pH 7.4-7.5 (μM)
Assignment: determine reported solubility kinetic for the given compounds.
The reply should contain only the number, in µM.

Recorded solubility kinetic (compound O=C1COc2ncc(CN[C@H]3CO[C@H](CC4Cn5c(=O)ccc6ccc(F)c4c65)OC3)nc2N1 (stereo partly drawn) ): 25

Recorded solubility kinetic (compound COc1ccc2ncc(F)c(C[C@H](O)[C@H]3OC[C@H](NCc4cc5c(nn4)OCCS5)CO3)c2n1 [Compound 147, reference compound] ): 69.6

Recorded solubility kinetic (compound COc1ccc2ncc(F)c(C[C@H](O)[C@H]3OC[C@H](NCc4cnc5c(n4)NC(=O)CO5)CO3)c2n1 ): 118

###

procedure_text: in vitro
recorded_conditions: mouse, hepatocytes
quantity_measured: half-life

Recorded half-life (compound COc1ccc2ncc(F)c(C[C@H](O)[C@H]3OC[C@H](NCc4cnc5c(n4)NC(=O)CO5)CO3)c2n1 [Compound 284] ): > 4 h
